Values were extracted from paper PMC9320206.

target: Lysine-specific demethylase 1 (LSD1) (Homo sapiens, UniProt O60341); construct: recombinant LSD1 (pET-28b-LSD1, expressed in BL21(DE3)); assay: HRP/Amplex Red fluorescence demethylase assay with H3K4me2 peptide; no-enzyme counter-screen; […] dilution reversibility assay
pIC50: −log10 of the molar value.

{"columns": ["itemSmiles", "targetUnderTest", "pIC50"],
 "data": [
  ["C[n+]1cc2c3c(ccc2c2ccc4cc5c(cc4c21)OCO5)OCO3", "Lysine-specific demethylase 1 (LSD1) (Homo sapiens, UniProt O60341)", 6.40]
]}
